Hello, the source for this data is ChEMBL document CHEMBL2434903, in case you need it.

Assay: Cytostatic activity against human MRC5 cells by MTT assay
Assay type: ADME, cell-based
Property: CC50

Solved cases below.
Qu. Request the reported CC50 associated with CCCc1cc2cn(C3CC(CO)N(C)O3)c(=O)nc2o1 (stereo not given)
Ans. 31.2 µM

Qu. Request the reported CC50 associated with CN1OC(n2cc3cc(-c4ccccc4)oc3nc2=O)CC1CO (racemic)
Ans. 125 µM

Qu. Request the reported CC50 associated with CN1OC(n2cc3ccoc3nc2=O)CC1CO (racemic)
Ans. > 250 µM

Qu. Request the reported CC50 associated with COc1ccc(-c2cc3cn(C4CC(CO)N(C)O4)c(=O)nc3o2)cc1 (racemic)
Ans. 31.2 µM

Now for a further compound.
Qu. Request the reported CC50 associated with CCCCCc1ccc(-c2cc3cn(C4CC(CO)N(C)O4)c(=O)nc3o2)cc1 (racemic)
Ans. 1.5 µM
